Tested on: NCI-H522 lung
Assay: NCI-60 one-dose screen, 48 h (100 = growth as untreated, 0 = no growth, -100 = all killed)
Settings: 10 µM unless noted
Compounds without any hit were thinned out: in the full panel of roughly 83,000, 20% have a hit.
Tag: fulfilled if measured growth is not below 60%, not fulfilled if it is.

{"compound": "COc1cccc(/C=N/NC(=O)c2ccccc2N2CCCC2)c1O", "group.label": "not fulfilled"}
{"compound": "O=c1nc(-c2ccccc2)c2cc(-c3ccc(C(F)(F)F)nc3)ccc2[nH]1", "group.label": "fulfilled"}
{"compound": "COc1ccc(-c2n[nH]c(=O)c3nc(NC(=S)Nc4ccc(Oc5ccccc5)cc4)sc23)cc1", "group.label": "fulfilled"}
{"compound": "CCCn1cnc2c(c1=N)C(c1ccc(F)cc1)c1sc3c(F)cccc3c1O2 (stereo not given)", "group.label": "not fulfilled"}
{"compound": "CN1CCN(CCOc2ccc(-c3cnc4c(-c5ccc(F)cc5)cnn4c3)cc2)CC1", "group.label": "fulfilled"}
{"compound": "CCN1C(=O)N(CC)C2C1NN=c1s/c(=C\\c3cnc(C)n3C)c(=O)n12 (stereo not given)", "group.label": "not fulfilled"}

Exercise: Given O=C1/C(=C/c2ccc(F)cc2)CN(C(=O)C(Cl)Cl)C/C1=C\c1ccc(F)cc1 , state whether its growth is at least 60%.
Solution: not fulfilled

Exercise: Given CN1CCN(Cc2ccc(NC(=O)c3cncc(C#Cc4cnc(N)c5ccc(F)cc45)c3)cc2C(F)(F)F)CC1 , state whether its growth is at least 60%.
Solution: not fulfilled

Exercise: Given CCOC(=O)CC1CSC(Nc2ccccc2)=N1 (stereo not given) , state whether its growth is at least 60%.
Solution: fulfilled

Exercise: Given CN(Cc1ccccc1)c1nc(Cl)c(C2CC(c3ccccc3)=NN2c2ccccc2)s1 (stereo not given) , state whether its growth is at least 60%.
Solution: fulfilled

Exercise: Given O=C1c2ccccc2C(=O)C1c1ccc(Br)cc1 , state whether its growth is at least 60%.
Solution: fulfilled

Exercise: Given Cc1c(Cl)cccc1C(=O)Nc1nc2c(s1)CN(C(=O)c1ccc(C(F)(F)F)cc1)CC2 , state whether its growth is at least 60%.
Solution: not fulfilled

Exercise: Given Cn1c(=O)c2[nH]c(SCC(=O)Nc3ccc(C(=O)/C=C/c4ccccc4Cl)cc3)nc2n(C)c1=O , state whether its growth is at least 60%.
Solution: fulfilled

Exercise: Given C/C(=N\O)[C@@H]1CC[C@]2(CO)CC[C@]3(C)[C@H](CC[C@@H]4[C@@]5(C)CCCNC(C)(C)[C@@H]5CC[C@]43C)[C@@H]12 , state whether its growth is at least 60%.
Solution: fulfilled

---

System: SF-295 CNS
Assay: NCI-60 one-dose screen, 48 h (100 = growth as untreated, 0 = no growth, -100 = all killed)
Conditions: 10 µM unless noted
The panel holds about 83,000 compounds, 20% with a hit somewhere; the sample as a whole holds those more often.
endpoint.label: growth (%)
Express the result in % but write the number alone.

{"compound": "O=C(Cc1ccc(NC(=O)c2cccc(Cl)c2)cc1)NCc1ccccc1", "value.reported": 41.3}
{"compound": "COc1cc(OC)c(C(=O)C(CN(C)C)CN(C)C)cc1OC", "value.reported": 101}
{"compound": "Cc1c2ccncc2c(C)c2c1c1cc(CO)ccc1n2C", "value.reported": 3.5}

For this compound ( COC(=O)c1c2c(c(C)[n+]([O-])c1C)C(=O)C(NCc1ccc(OC)cc1)=CC2=O ), measured growth is 66.6

For this compound ( CCN1C(=O)N(CC)C2C1NN=c1s/c(=C3\C(=O)N(CCC(C)C)c4ccccc43)c(=O)n12 (stereo unspecified) ), measured growth is 8.08

For this compound ( Cc1ccc2c(-n3nc(C#N)c(C#N)c3N)cc(=O)[nH]c2c1 ), measured growth is 94

---

Test system: HCC-2998 colon
Test: NCI-60 one-dose screen, 48 h (100 = growth as untreated, 0 = no growth, -100 = all killed)
Conditions: 10 µM unless noted
This is part of a sample that, as a whole, favours compounds with a hit. Of some 83,000 tested, about 20% had one in any assay.
Tag: 1 if measured growth is not below 90%, -1 if it is.

Examples from the recorded data:
{"compound": "COCCn1cc(-c2csc(-c3c[nH]c4ccc(Br)cc34)n2)c2cccnc21", "group.label": -1}
{"compound": "CCN1C(=O)N(CC)C2C1N=C(SCc1ccc(Cl)cc1)N2/N=C/C=C/c1ccccc1OC (stereo not given)", "group.label": -1}
{"compound": "CCN1CCN(CC(=O)Nc2ccc(-c3cn4c(n3)sc3cc(Oc5ccnc(C(=O)NC)c5)ccc34)cc2)CC1", "group.label": 1}

Exercise: Given C=Cc1cnc(Nc2ccc(OC)cc2)nc1NCCCNC(=O)C1CCC1 , state whether its growth is at least 90%.
Solution: -1

Exercise: Given FC(F)(F)Oc1cccc(-c2cnc3ccc(-c4ccncc4)nn23)c1 , state whether its growth is at least 90%.
Solution: -1

Exercise: Given COc1cccc(CNc2c3ccccc3nc3ccccc23)c1 , state whether its growth is at least 90%.
Solution: -1

Exercise: Given N#C/C(=C\C=C\c1ccc(-c2cc(Cl)ccc2Cl)o1)c1nc2ccccc2s1 , state whether its growth is at least 90%.
Solution: 1

Exercise: Given CC1(C)OB(O)c2cc(-c3nc4ccc5[nH]ncc5c4c4c3CCCC4)ccc21 , state whether its growth is at least 90%.
Solution: -1

Exercise: Given O=C(O)COc1ccc(Cl)c(Cl)c1 , state whether its growth is at least 90%.
Solution: 1

---

Tested on: UACC-62 melanoma
Experiment: NCI-60 one-dose screen, 48 h
Conditions: 10 µM unless noted
This is part of a sample that, as a whole, favours compounds with a hit. Of some 83,000 tested, about 20% had one in any assay. Activity calls are given as the source filed them. How the source made its calls: active means growth percent below 10; inactive means the rest.
Mark one answer only. Choices: active, inactive

{"compound": "CS(=O)(=O)Nc1cc(-c2ccc3ncc(C#N)c(Nc4ccc(F)c(Cl)c4)c3c2)cnc1Cl", "group.label": "active"}

Exercise: What did this assay record as the result for COc1ccc(-c2n[nH]c(=O)c3nc(NC(=S)Nc4ccc(Oc5ccccc5)cc4)sc23)cc1 ?
Solution: inactive

Exercise: What did this assay record as the result for COc1ccccc1C(=O)Nc1cccc(NC(=O)c2ccoc2C)c1 ?
Solution: inactive

Exercise: What did this assay record as the result for O=C1/C(=C/c2ccc(F)cc2)CN(C(=O)C(Cl)Cl)C/C1=C\c1ccc(F)cc1 ?
Solution: active

Exercise: What did this assay record as the result for COC(=O)/C=C1/SC(=Nc2ccc([N+](=O)[O-])cc2)N(CCc2c[nH]c3ccc(O)cc23)C1=O ?
Solution: inactive

Exercise: What did this assay record as the result for COc1ccc(/C=C/C(c2cc(OC)c(OC)c(OC)c2)n2ccnc2)cc1O (stereo unspecified) ?
Solution: inactive

Exercise: What did this assay record as the result for CNC(=O)c1ccccc1Nc1nc(Nc2cc(OC)c(OC)c(OC)c2)ncc1Br ?
Solution: active

Exercise: What did this assay record as the result for C#COc1cccc(Nc2ncnc3cc(NC(=O)[C@@H](C)Cl)ccc23)c1 ?
Solution: inactive

Exercise: What did this assay record as the result for C=C(C)[C@@H]1CCC[C@]2(C(=O)N3CCN(C)CC3)CC[C@]3(C)[C@@H](CC[C@@H]4[C@@]5(C)CC/C(=N\NC(=O)c6ccncc6)C(C)(C)[C@@H]5CC[C@]43C)[C@@H]12 ?
Solution: inactive

Exercise: What did this assay record as the result for CN1CCN(Cc2ccc(NC(=O)c3cncc(C#Cc4cnc(N)c5ccc(F)cc45)c3)cc2C(F)(F)F)CC1 ?
Solution: inactive

---

Tested on: SNB-75 CNS
Experiment: NCI-60 one-dose screen, 48 h
Details: 10 µM unless noted
Compounds without any hit were thinned out: in the full panel of roughly 83,000, 20% have a hit. Activity calls are given as the source filed them. The calls were made as follows: active = growth percent below 10; inactive = the rest.
Mark one answer only. Choices: class 1 for active, class 0 for inactive

{"compound.smiles": "CC1(C)CC2=C3C=C[C@@H]4[C@@]5(C)CCC(=O)C(C)(C)[C@@H]5CC[C@@]4(C)[C@]3(C)CC[C@@]2(C(=O)O)C[C@H]1O", "target.system": "SNB-75 CNS", "group.label": "class 0"}
{"compound.smiles": "COc1cc(C2C(C(=O)OCc3ccccc3)=C(C)NC(C)=C2C(=O)OCc2ccccc2)cc(OC)c1OC", "target.system": "SNB-75 CNS", "group.label": "class 0"}
{"compound.smiles": "N#Cc1c(Nc2ccc(N3CCOCC3)cc2)nc(SCC(=O)c2ccc(Br)cc2)nc1-c1ccccc1", "target.system": "SNB-75 CNS", "group.label": "class 0"}
{"compound.smiles": "NS(=O)(=O)c1ccc(C(=O)NN2C(=O)c3c(Br)c(Br)c(Br)c(Br)c3C2=O)cc1", "target.system": "SNB-75 CNS", "group.label": "class 0"}
{"compound.smiles": "COc1cccc(C(=O)NNc2nc(Cl)nc(Cl)n2)c1", "target.system": "SNB-75 CNS", "group.label": "class 0"}
{"compound.smiles": "COc1cc(OC)c(/C=C/C(=O)c2c(O)cc(OC)c(C3CCN(C)CC3)c2OC)c(OC)c1", "target.system": "SNB-75 CNS", "group.label": "class 1"}
{"compound.smiles": "CSc1nc(C)c([N+](=O)[O-])c(N)n1", "target.system": "SNB-75 CNS", "group.label": "class 0"}
{"compound.smiles": "Cc1c2cccnc2c(C)c2c1c1cc(CO)ccc1n2C", "target.system": "SNB-75 CNS", "group.label": "class 0"}

Lab note: next compound to report on.
Exercise: What did this assay record as the result for COc1cc(-c2nc3sccn3c2-c2ccnc(NCCNS(=O)(=O)c3ccc(Cl)cc3)n2)ccc1F ?
Solution: class 0

Recorded values, source PubChem BioAssay (NCI).
